measuredTarget: T1, human Prostate Specific Membrane Antigen (PSMA) (human, UniProt Q04609 1-750)
T1 construct: whole, on cells; also called Glutamate Carboxypeptidase II; FOLH1
T1 sequence (Q04609 whole entry): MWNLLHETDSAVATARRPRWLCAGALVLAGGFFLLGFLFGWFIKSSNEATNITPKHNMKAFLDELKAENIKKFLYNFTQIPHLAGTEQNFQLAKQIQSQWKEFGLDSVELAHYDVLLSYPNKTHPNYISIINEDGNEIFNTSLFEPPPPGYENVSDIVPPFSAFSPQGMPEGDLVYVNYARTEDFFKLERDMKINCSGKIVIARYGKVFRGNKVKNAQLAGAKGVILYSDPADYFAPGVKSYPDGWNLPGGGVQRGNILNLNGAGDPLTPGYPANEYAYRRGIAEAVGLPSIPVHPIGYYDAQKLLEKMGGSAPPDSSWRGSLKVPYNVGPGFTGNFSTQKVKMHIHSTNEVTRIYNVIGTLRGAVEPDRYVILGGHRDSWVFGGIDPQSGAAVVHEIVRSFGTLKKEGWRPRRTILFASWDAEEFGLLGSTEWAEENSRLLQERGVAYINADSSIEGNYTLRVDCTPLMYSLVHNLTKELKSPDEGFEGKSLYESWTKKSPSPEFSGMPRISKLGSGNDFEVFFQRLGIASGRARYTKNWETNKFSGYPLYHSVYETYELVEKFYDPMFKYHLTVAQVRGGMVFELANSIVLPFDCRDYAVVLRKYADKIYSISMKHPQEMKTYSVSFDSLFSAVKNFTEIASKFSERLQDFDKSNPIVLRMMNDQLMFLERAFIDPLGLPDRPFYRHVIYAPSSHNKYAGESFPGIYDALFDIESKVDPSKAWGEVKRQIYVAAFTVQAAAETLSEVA
experimentalProtocol: flow cytometry on LNCaP cells
measurementLabel: fold over background MFI (fold over background)
Give your result in fold over background as a bare value.

For orientation, consider the following solved cases.
{"binder": "anti-PSMA heavy-chain antibody (HCAb) clone ID 326029 (antibody, V domains shown, Heavy chain-only antibody (UniAb)) VH: QVQLVESGGGVVQPGRSLRLSCAASGFSFSRYGMHWVRQAPGKGLEWVAVISYDGSNKYYADSVKGRFTISRDNSKNTLYLQMNSLRAEDTAVYYCAREPRVGYYYETSGYYSLDYRGQGTLVTVSS", "valueUnit": "fold over background", "observedMeasurement": 109}
{"binder": "anti-PSMA heavy-chain antibody (HCAb) clone ID 345509 (antibody, V domains shown, Heavy chain-only antibody (UniAb)) VH: QVQLVESGGGLVQPGGSLRLSCAASGFSFSSYGMHWVRQAPGKGLEGVAVIWYDGSNKYYADSVKGRFTISRDNSKNTMYLQMNSLRAEDTAVYYCAREPRIGYYYESSGYYSLDYRGQGTLVTVSS", "valueUnit": "fold over background", "observedMeasurement": 37}

Now, please, on to the next binder.
fold over background MFI reported for this binder anti-PSMA heavy-chain antibody (HCAb) clone ID 345485 (antibody, V domains shown, Heavy chain-only antibody (UniAb)) VH: QVQLVESGGGVVQPGRSLRLSCAASGFSFRSYGMHWVRQAPGKGLEWVAVIWYDGSNKYYADSVKGRFTISRDNSKNTMYLQMNSLRAEDTAVYYCAREPRIGYYYESSGYYSLDYRGQGTLVTVSS : 71
